Just for reference, the Kinase Knowledgebase extract (Sharma et al. 2016) is where these values come from.

assaySystem: PIK3CA (human) (UniProt P42336)
Sequence (P42336 whole entry, looked up): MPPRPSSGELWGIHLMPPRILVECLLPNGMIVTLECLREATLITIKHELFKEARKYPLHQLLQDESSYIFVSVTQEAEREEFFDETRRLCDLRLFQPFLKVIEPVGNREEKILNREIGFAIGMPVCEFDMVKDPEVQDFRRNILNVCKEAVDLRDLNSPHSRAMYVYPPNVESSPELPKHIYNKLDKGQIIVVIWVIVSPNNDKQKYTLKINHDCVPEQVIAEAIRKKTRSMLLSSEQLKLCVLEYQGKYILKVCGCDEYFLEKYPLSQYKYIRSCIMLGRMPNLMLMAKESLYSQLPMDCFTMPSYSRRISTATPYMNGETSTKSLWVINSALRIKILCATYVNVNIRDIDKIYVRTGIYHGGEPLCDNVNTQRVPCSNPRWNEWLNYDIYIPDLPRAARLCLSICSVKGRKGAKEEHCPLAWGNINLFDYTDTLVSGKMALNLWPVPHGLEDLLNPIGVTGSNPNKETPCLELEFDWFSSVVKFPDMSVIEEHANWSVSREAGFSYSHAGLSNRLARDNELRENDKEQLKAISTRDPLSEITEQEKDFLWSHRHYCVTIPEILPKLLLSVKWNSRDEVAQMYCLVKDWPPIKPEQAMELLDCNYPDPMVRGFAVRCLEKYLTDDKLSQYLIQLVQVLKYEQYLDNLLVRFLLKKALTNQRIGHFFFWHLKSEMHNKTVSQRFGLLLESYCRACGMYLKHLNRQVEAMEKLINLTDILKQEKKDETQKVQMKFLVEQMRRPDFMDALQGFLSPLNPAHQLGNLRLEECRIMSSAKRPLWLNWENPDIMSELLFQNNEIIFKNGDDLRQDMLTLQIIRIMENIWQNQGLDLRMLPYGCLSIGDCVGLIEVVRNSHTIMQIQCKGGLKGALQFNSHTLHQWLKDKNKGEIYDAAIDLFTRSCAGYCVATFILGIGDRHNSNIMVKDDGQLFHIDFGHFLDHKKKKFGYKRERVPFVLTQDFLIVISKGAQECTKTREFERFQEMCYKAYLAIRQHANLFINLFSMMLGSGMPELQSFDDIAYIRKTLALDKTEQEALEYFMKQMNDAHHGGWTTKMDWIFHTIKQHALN
testProtocol: Cell-Based Assay
conditionDetails: rat-1
pIC50: −log10 of the molar value.
Some compounds, each annotated with its measured pIC50.

### Prompt So what's the measured pIC50 for this one? N#Cc1c(N)ncnc1N1CCC[C@H]1c1nc2cccc(Cl)c2c(=O)n1-c1cccnc1
### Response 5.34

### Prompt Form field: reported pIC50 of N#Cc1c(C(F)F)nc(N)nc1N1C[C@@H](O)C[C@H]1c1nc2cccc(C(F)(F)F)c2c(=O)n1-c1ccccc1
### Response < 5.00

### Prompt Look up pIC50: Nc1nc(N2C[C@@H](O)C[C@H]2c2nc3cccc(C(F)(F)F)c3c(=O)n2-c2ccccc2)c2nccn2n1
### Response < 5.00

### Prompt Could you tell me which pIC50 is on file for Nc1nc(N2CCC[C@H]2c2nc3cccc(C(F)(F)F)c3c(=O)n2-c2ccccc2)c2nccn2n1 ?
### Response < 5.00

* * *

assaySystem: UniProt P42336
testProtocol: Enzyme Assay
measuredQuantity: IC50 (nM)
Your answer should be a plain number; it is taken to be in nM.

Nc1nc(N2C[C@@H](O)C[C@H]2c2nc3cccc(C(F)(F)F)c3c(=O)n2-c2ccccc2)c2ncsc2n1: 2500

### Prompt Param item = O=c1c2c(C(F)(F)F)cccc2nc([C@@H]2C[C@H](O)CN2c2ncnc3[nH]cnc23)n1-c1ccccc1 ; retrieve measured IC50.
### Response 1400

### Prompt Can you look up the measured IC50 of Cn1cnc2c(N3CCC[C@H]3c3nc4cccc(Cl)c4c(=O)n3C3CC3)nc(N)nc21 for me?
### Response 5950

### Prompt # lookup: IC50 of Cc1nc(N)nc(N2C[C@@H](F)C[C@H]2c2nc3cccc(C(F)(F)F)c3c(=O)n2-c2cccc(F)c2)c1C#N
### Response 910

### Prompt If you can, please state the reported IC50 value of N#Cc1c(N)ncnc1N1CCC[C@H]1c1nc2cccc(Cl)c2c(=O)n1-c1ccccc1 .
### Response 393

### Prompt # get_value(readout='IC50', item= CO[C@H]1C[C@@H](c2nc3cccc(Cl)c3c(=O)n2N2CCOCC2)N(c2ncnc(N)c2C#N)C1 )
### Response 4000

### Prompt Requested field: IC50. Item: O=c1c2c(Cl)cccc2nc([C@@H]2CCCN2c2ncnc3[nH]cnc23)n1N1CCOCC1
### Response 2800

* * *

assaySystem: PIK3CA (human) (UniProt P42336)
testProtocol: Enzyme Assay
The following compounds are shown together with reported pIC50 values.
pIC50 here: minus log base 10 of the concentration, concentration in moles per litre.

### Prompt Report pIC50 for Cc1nc(N)nc(N2CCC[C@H]2c2nc3cccc(F)c3c(=O)n2-c2ccccc2)c1C#N please.
### Response 6.48

* * *

assaySystem: PIK3CG (human) (UniProt P48736)
Sequence (P48736 whole entry, looked up): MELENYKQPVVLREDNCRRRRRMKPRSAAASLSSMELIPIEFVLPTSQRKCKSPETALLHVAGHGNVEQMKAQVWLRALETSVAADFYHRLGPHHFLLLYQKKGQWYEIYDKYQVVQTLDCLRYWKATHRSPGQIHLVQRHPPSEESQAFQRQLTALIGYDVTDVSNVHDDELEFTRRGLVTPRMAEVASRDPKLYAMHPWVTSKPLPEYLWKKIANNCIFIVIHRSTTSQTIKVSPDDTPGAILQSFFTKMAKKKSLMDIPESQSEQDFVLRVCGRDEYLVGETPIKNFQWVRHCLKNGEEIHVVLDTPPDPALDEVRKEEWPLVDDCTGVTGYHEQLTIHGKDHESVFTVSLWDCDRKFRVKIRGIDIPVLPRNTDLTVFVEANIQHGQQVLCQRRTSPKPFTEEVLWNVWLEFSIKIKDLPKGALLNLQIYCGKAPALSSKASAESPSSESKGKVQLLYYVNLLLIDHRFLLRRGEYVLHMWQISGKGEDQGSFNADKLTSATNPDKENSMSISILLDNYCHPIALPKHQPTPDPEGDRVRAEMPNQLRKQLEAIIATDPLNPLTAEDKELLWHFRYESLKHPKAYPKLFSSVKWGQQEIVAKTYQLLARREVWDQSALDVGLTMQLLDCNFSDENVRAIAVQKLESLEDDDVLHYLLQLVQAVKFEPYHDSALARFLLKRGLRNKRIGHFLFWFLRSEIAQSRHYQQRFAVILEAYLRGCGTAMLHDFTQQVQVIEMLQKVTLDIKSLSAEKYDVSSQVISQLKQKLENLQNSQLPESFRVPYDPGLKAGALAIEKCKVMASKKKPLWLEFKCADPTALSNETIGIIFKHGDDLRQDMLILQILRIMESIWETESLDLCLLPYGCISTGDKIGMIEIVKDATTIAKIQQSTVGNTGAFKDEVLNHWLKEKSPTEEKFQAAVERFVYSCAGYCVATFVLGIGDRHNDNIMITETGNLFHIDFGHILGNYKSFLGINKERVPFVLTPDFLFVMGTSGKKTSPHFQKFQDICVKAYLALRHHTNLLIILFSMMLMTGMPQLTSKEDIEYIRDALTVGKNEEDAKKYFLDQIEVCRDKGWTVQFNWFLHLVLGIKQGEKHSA
testProtocol: Enzyme Assay
measuredQuantity: IC50 (µM)
# value in µM; strip the unit string

Some compounds with known IC50 results, for comparison:
Cc1nc(N)nc(N2C[C@@H](O)C[C@H]2c2nc3ccc(F)c(C)c3c(=O)n2-c2ccccc2)c1C#N: 0.024
O=c1c2c(Cl)cccc2nc([C@@H]2CCCN2c2ncnc3[nH]cnc23)n1N1CCOCC1: 0.14
N#Cc1c(N)ncnc1N1CCC[C@H]1c1nc2cccc(Cl)c2c(=O)n1-c1ccccc1: 0.024
N#Cc1c(N)ncnc1N1C[C@@H](O)C[C@H]1c1nc2cccc(Cl)c2c(=O)n1-c1ccccc1: 0.05
N#Cc1c(N)ncnc1N1CCC[C@H]1c1nc2cccc(Cl)c2c(=O)n1N1CCCCC1: 3.2
N#Cc1c(N)ncnc1N1C[C@@H](O)C[C@H]1c1nc2cccc(C(F)(F)F)c2c(=O)n1-c1ccccc1: 0.066

Now consider a different compound.
### Prompt Data request, read-out IC50, for Cc1c(F)ccc2nc([C@@H]3C[C@H](O)CN3c3ncnc(N)c3C#N)n(-c3ccccc3)c(=O)c12
### Response 0.37
